# TARGET OF ASSAY: human SIRPαBIT (huSIRPαBIT), protein antigen (human) (UniProt P78324)
# Sequence (P78324 31-370): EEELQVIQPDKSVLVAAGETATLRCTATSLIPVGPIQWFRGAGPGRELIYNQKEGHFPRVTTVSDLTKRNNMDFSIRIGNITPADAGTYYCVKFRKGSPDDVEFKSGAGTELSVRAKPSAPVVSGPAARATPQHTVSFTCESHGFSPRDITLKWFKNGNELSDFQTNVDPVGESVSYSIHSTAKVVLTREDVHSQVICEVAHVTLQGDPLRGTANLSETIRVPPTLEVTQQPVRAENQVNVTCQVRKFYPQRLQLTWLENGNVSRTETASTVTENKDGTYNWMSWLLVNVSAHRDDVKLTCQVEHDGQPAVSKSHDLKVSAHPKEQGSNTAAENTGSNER
# MEASUREMENT NOTES: SPR, biotinylated antigen captured, 25 C
pKd: −log10 of the molar value.
pKd values by entry

BINDER	MODIFIER	pKd
KWAR23 huIgG1LALA (antibody, V domains shown) VH: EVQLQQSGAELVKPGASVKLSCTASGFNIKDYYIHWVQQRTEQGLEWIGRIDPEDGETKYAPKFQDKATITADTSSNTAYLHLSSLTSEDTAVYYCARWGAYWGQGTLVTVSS VL: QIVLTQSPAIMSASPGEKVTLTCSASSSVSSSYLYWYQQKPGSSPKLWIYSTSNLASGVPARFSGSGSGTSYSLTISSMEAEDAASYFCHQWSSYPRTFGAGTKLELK	>	11.00
anti-SIRPα antibody 11 humanized (antibody, human IgG1, kappa, L234A L235A, V domains shown, Humanized, human IgG1 LALA / kappa) VH: EVKVEESGGGLVQPGGSLRLSCAASGFSLSSYVMGWVRQAPGKGLEWVSIISSSGSPYYASWVNGRFTISKTSTTMDLQMNSLRAEDTAVYYCARVGPLGVDYFNIWGQGTTVTVSS VL: DIQMTQSPSSLSASVGDRVTITCQAGQSINSYLAWYQQKPGKVPKLLIYYASTLESGVPSRFSGSGSGTDFTLTISSLQPEDVATYYCQSWHYISRSYAFGQGTKVEIKR	=	9.85
anti-SIRPα antibody 10 humanized (antibody, human IgG1, kappa, L234A L235A, V domains shown, Humanized, human IgG1 LALA / kappa) VH: KVEESGGGLVQPGGSLRLSCAASGFSLSSYVMGWVRQAPGKGLEWVSIISSSGSPYYASWVNGRFTISKDNSEGMVYLQMNSLRAEDTAVYYCARVGPLGVDYFNIWGQGTTVTVSS VL: DIVMTQSPDSLAVSLGERATINCQAGQSINSYLAWYQQKPGQPPKLLIYYASTLESGVPDRFSGSGSGTDFTLTISSLQAEDVAVYYCQSWHYISRSYAFGGGTKLEIKR	>	11.00
anti-SIRPα antibody 14 humanized (antibody, human IgG1, V domains shown, Humanized, human IgG1 LALA / kappa) VH: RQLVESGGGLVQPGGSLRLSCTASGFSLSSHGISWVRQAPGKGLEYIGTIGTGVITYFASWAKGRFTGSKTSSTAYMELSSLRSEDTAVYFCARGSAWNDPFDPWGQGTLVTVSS VL: DIEMTQSPSSVSASVGDRVTLTCQASQSVYGNNDLAWYQQKPGQAPKLLIYLASTLATGVPSRFSGSGSGTDFTLTISSLQPEDFATYYCLGGGDDEADNVFGGGTKVEIKR	=	10.05
anti-SIRPα antibody 7 (antibody, human IgG1, kappa, L234A L235A, V domains shown, Chimeric: rabbit variable regions on human IgG1 LALA / kappa; also called chimeric antibody 7) VH: RSVEESGGRLVTPGTPLTLTCTVSGFSLSSHGISWVRQAPGKGLEYIGTIGTGVITYFASWAKGRFTGSKTSTTVDLKITSPTTEDTATYFCARGSAWNDPFDPWGPGTLVTVSS VL: ALVMTQTPASVSAAVGGTVTTKCQASQSVYGNNDLAWYQHKPGQPPKLLIYLASTLATGVPSRFSGSGSGTQFTLTITGVQSDDAATYYCLGGGDDEADNVFGGGTEVVVKR	>	11.00
KWAR23 mouse IgG2a (antibody, V domains shown) VH: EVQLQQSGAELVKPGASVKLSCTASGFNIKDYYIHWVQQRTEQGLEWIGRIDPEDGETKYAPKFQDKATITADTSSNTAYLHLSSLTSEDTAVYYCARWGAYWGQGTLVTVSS VL: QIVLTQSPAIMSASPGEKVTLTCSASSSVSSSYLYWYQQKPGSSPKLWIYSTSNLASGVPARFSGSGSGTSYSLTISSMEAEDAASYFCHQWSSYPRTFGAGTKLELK	>	11.00
anti-SIRPα antibody 4 (antibody, human IgG1, kappa, L234A L235A, V domains shown, Chimeric: rabbit variable regions on human IgG1 LALA / kappa; also called chimeric antibody 4) VH: QSVEESGGRLGTPGTPLTLTCTVSGFSLSSYVMGWFRQAPGKGLEYIGIISSSGSPYYASWVNGRFTISKTSTTMDLKMNSPTTEDTATYFCARVGPLGVDYFNIWGPGTLVTVSL VL: DIVMTQTPSSVEAAVGGTVTIKCQAGQSINSYLAWYQQKPGQRPKLLIYYASTLESGVPSRFKGSGSGTDYTLTISDLESADAATYYCQSWHYISRSYAFGGGTEVVVKR	>	11.00
anti-SIRPα antibody 13 humanized (antibody, human IgG1, V domains shown, Humanized, human IgG1 LALA / kappa) VH: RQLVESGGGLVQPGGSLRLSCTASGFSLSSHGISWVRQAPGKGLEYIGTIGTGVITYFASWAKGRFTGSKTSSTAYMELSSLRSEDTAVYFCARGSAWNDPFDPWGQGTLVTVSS VL: AIQMTQSPSSLSASVGDRVTITCQASQSVYGNNDLAWYQQKPGKAPKLLIYLASTLATGVPSRFSGSGSGTDFTLTISSLQPEDFATYYCLGGGDDEADNVFGGGTKVEIKR	=	10.92
12C4huIgG1LALA (antibody, V domains shown, HAVT20 leader left out; also called 12C4LALA; huIgG112C4LALA) VH: EVKLEESGGGLMQPGGSMKLSCVASGFTFSNYWMNWVRQSPEKGLEWVAEIRLKSNNYATHYAESVKGRFTISRDDSKSSVYLQMNNLRAEDTGIYYCIRDYDYDAYFDYWGQGTTLTVSS VL: DIVLTQSPASLAVSLGQRATISCRASKSVSTSGYNYMYWYQQKPGQPPKLLIYLASNLESGVPARFSGSGSGTDFTLNIHPVEEEDAATYYCQHSGELPYTFGGGTKLEIKR	=	10.82
anti-SIRPα antibody 12 humanized (antibody, human IgG1, kappa, L234A L235A, V domains shown, Humanized, human IgG1 LALA / kappa) VH: VQLVESGGRLVQPGTPLTLSCTVSGFSLSSYVMGWFRQAPGKGLEYIGIISSSGSPYYASWVNGRFTISKTSTTMDLKMNSLRSEDTATYFCARVGPLGVDYFNIWGPGTLVTVSS VL: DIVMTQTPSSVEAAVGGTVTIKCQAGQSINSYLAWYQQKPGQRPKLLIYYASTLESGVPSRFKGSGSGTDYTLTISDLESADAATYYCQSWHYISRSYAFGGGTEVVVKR	>	11.00
